Target Under Test: T1, JCV major capsid protein VP1, wild type (John Cunningham virus (JCV), UniProt P03089 1-354)
T1 construct: also called WT VP1; wild type VP1
Assay: ELISA, plates coated with pseudovirus, purified antibody
Parameter Measured: EC50 (ng/mL)
Field format: number, assumed ng/mL, no unit text.

Below are worked cases with known answers.
| Binder | EC50 (ng/mL) |
| --- | --- |
| 2A6 (antibody, V domains shown) VH: QVQLQQWGAGLLKPSETLSLTCAVYGGSFSGYYWSWIRQPPGKGLEWIGDINHGGSTNYNPSLKSRVIISVDTSKNQFSLKLSSVTAADTALYYCARGWGGQVAHWFDPWGQGTLGTVSS VL: DIVMTQSPDSLALSLGERATINCKSSQSVLFSSNNQNYLAWYQQKPGQPPKLLIYWASTRESGVPDRFSGSGSGTDFTLTVSSLQAEDVAVYFCQQYYSLPYTFGQGTKLEIK | 1300 |
| 2A11 (antibody, V domains shown) VH: QVQLVESGGGLVKPGGSLRLSCAASGFTFSDHYMSWIRQAPGKGLEWVSYISTSGRTIYYVDSVKGRFTISRDNAKNSLYLQMNSLRAEDMAVYYCASDYYDNVGWNYWGQGALVTVSS VL: DVVLTQSPLSLPVTLGQPASISCRSSQSLVYSDGNTYLNWFQQRPGQSPRRLIYKVSDRDFGVPDRFSGSGSGTDFTLKISRVEAEDVGIYYCMQGTHWPRTFGQGTKVEIK | 7.4 |

# next binder below
Input: Name the recorded EC50 for 1E12 (antibody, V domains shown) VH: QVQLVESGGGLVKPGGSLRLSCTASGFTFSDHYMSWIRQAPGKGLEWVSYISTGGRTIYYADSVKGRFTISRDNAKNSLYLQMNSLRAEDTAVYYCASDYYDNVGWDYWGQGTLVTVSS VL: DVVLTQSPLSLPVTLGQPASISCRSSQSLIYSDGNTYLNWFQQRPGQSPRRLIYKVSDRDSGVPDRFSGSGSGTDFTLKISRVEAEDVGVYYCMQGTHWPRTFGQGTKVEIK .
Output: 8.4
